From: patent US12492210B2

For reference, pIC50 measured on UniProtKB P28482:
pIC50: −log10 of the molar value.

[[record]]
compound = "Cn1nccc1Nc1cc(-c2cc3n(c2)C[C@H](CF)n2c(Cc4c(F)cccc4F)nnc2-3)c(Cl)cn1"
endpoint_name = "pIC50"
recorded_measurement = "≥ 8.30"

[[record]]
compound = "Cn1nccc1Nc1cc(-c2cc3n(c2)C[C@@H](O)Cn2c-3nnc2C2(C(F)(F)F)CCC2)c(Cl)cn1"
endpoint_name = "pIC50"
recorded_measurement = "≥ 8.30"

[[record]]
compound = "Cc1cnc(Nc2ccnn2C)cc1-c1cc2n(c1)CCCn1c-2nnc1C1(C(F)(F)F)CC1"
endpoint_name = "pIC50"
recorded_measurement = "≥ 8.30"

[[record]]
compound = "Cn1nccc1Nc1cc(-c2cc3n(c2)C[C@H](CF)n2c-3nnc2C(F)(F)c2ncco2)c(Cl)cn1"
endpoint_name = "pIC50"
recorded_measurement = "≥ 8.30"

[[record]]
compound = "Cc1cnc(Nc2ccnn2C)cc1-c1cc2n(c1)[C@H]1CC[C@H](C1)n1c-2nnc1C(F)(F)C(F)F"
endpoint_name = "pIC50"
recorded_measurement = "≥ 8.30"

[[record]]
compound = "Cn1nccc1Nc1cc(-c2cc3n(c2)CC2(COC2)Cn2c-3nnc2C2(C(F)(F)F)CCC2)c(Cl)cn1"
endpoint_name = "pIC50"
recorded_measurement = "≥ 8.30"


Note to self: pIC50 of `C[C@H]1CCn2cc(-c3cc(Nc4ccnn4C)ncc3Cl)cc2-c2nnc(C3(CC(F)(F)F)CCC3)n21` with UniProtKB P28482 was ≥ 8.30

Note to self: pIC50 of `Cc1cnc(Nc2ccnn2C)nc1-c1cc2n(c1)C[C@H](C)n1c-2nnc1C1(C(F)(F)F)CCC1` with UniProtKB P28482 was ≥ 8.30
